Origin of the recorded values: ChEMBL document CHEMBL4610025

- study_system: Growth/differentiation factor 8 (Homo sapiens)
- experimental_protocol: Inhibition of myostatin (unknown origin) expressed in HEK293 cells at 10 uM incubated for 4 hrs by dual luciferase reporter gene assay
- Format: cell-based
Activity calls are given as the source filed them. The rule behind the calls is not given here. Residues, ends and D or L forms follow the SMILES beside them.
The reply should name one outcome from active, inactive

Take a look at these entries with their results.
CC[C@H](C)[C@H](NC(=O)[C@H](CCSC)NC(=O)[C@H](Cc1c[nH]c2ccccc12)NC(=O)[C@H](CCCCN)NC(=O)[C@H](C)NC(=O)[C@H](CC(C)C)NC(=O)[C@@H](NC(=O)[C@H](CC(N)=O)NC(=O)[C@H](CC(=O)O)NC(=O)[C@H](CC(N)=O)NC(=O)[C@@H](N)C(C)C)[C@@H](C)O)C(=O)N[C@@H](Cc1ccccc1)C(=O)N[C@@H](CC(N)=O)C(=O)NCC(N)=O (H-VNDNTLAKWMIFNG-NH2): inactive
CC[C@H](C)[C@H](NC(=O)[C@H](CCSC)NC(=O)[C@H](Cc1c[nH]c2ccccc12)NC(=O)[C@H](CCCCN)NC(=O)[C@H](Cc1ccccc1)NC(=O)[C@H](CC(C)C)NC(=O)[C@@H](NC(=O)[C@H](CC(N)=O)NC(=O)[C@H](C)NC(=O)[C@H](CC(N)=O)NC(=O)[C@@H](N)C(C)C)[C@@H](C)O)C(=O)N[C@@H](Cc1ccccc1)C(=O)N[C@@H](CC(N)=O)C(=O)NCC(N)=O (H-VNANTLFKWMIFNG-NH2): active
CC[C@H](C)[C@H](NC(=O)[C@H](CCSC)NC(=O)[C@H](Cc1c[nH]c2ccccc12)NC(=O)[C@H](C)NC(=O)[C@H](Cc1ccccc1)NC(=O)[C@H](CC(C)C)NC(=O)[C@@H](NC(=O)[C@H](CC(N)=O)NC(=O)[C@H](CC(=O)O)NC(=O)[C@H](CC(N)=O)NC(=O)[C@@H](N)C(C)C)[C@@H](C)O)C(=O)N[C@@H](Cc1ccccc1)C(=O)N[C@@H](CC(N)=O)C(=O)NCC(N)=O (H-VNDNTLFAWMIFNG-NH2): inactive
CC[C@H](C)[C@H](NC(=O)[C@H](CCSC)NC(=O)[C@H](Cc1c[nH]c2ccccc12)NC(=O)[C@H](CCCCN)NC(=O)[C@H](Cc1ccccc1)NC(=O)[C@H](CC(C)C)NC(=O)[C@@H](NC(=O)[C@H](CC(N)=O)NC(=O)[C@H](CC(=O)O)NC(=O)[C@H](CC(N)=O)NC(=O)[C@@H](N)C(C)C)[C@@H](C)O)C(=O)N[C@@H](Cc1ccccc1)C(=O)N[C@@H](C)C(=O)NCC(N)=O (H-VNDNTLFKWMIFAG-NH2): inactive

Inquiry: So what was the verdict on CC[C@H](C)[C@H](NC(=O)[C@H](CCSC)NC(=O)[C@H](Cc1c[nH]c2ccccc12)NC(=O)[C@H](CCCCN)NC(=O)[C@H](Cc1ccccc1)NC(=O)[C@H](CC(C)C)NC(=O)[C@@H](NC(=O)[C@H](CC(N)=O)NC(=O)[C@H](CC(=O)O)NC(=O)[C@@H](N)CC(N)=O)[C@@H](C)O)C(=O)N[C@@H](Cc1ccccc1)C(=O)N[C@@H](CC(N)=O)C(N)=O (H-NDNTLFKWMIFN-NH2) in this test?
Reply text: active
